Origin of measurements: patent US20260078135A1

Hi there, I'd appreciate the recorded IC50 for every entry that follows.
# measured.target: phosphorylated EGFR (pEGFR) (Homo sapiens)
# Construct: performed to measure phosphorylated EGFR levels using A431 cells (10% FBS); endogenous in cells
# assay.summary: Detection of phosphorylated EGFR (pEGFR) by AlphaLISA in EGF-stimulated A431 cells
# applied.conditions: A431 cells (10% FBS), 4 hours incubation, EGF 30 ng/mL for 10 minutes
# Procedure: Enzyme-linked immunosorbent assays (ELISA) were performed to measure phosphorylated EGFR levels using A431 cells (10% FBS). A431 (1.0*10^4 cells/40 μl/well) cells were seeded in 384 well. […] Acceptor mix (PerkinElmer, cat #ALSU-PEGFR-A50K) was prepared just before use and 5 μL was dispensed to all the wells, followed by a 1.5-2 h incubation at room temperature in dark. […] Plates were read on the Envision (PerkinElmer) using standard AlphaLISA settings. […]
The reply should contain only the number, in µM.

Prompt line: Provide only the value of recorded IC50 for Cc1cc(Nc2ncnc3cc4c(cc23)N2CCN(C(=O)/C=C/CN(C)C)C[C@@H]2CO4)ccc1Oc1ccn2ncnc2c1 [Compound 10]
Response line: 3.28

Prompt line: Provide only the value of recorded IC50 for C=CC(=O)N1CCN2c3ccc4ncnc(Nc5ccc(Oc6ccn7ncnc7c6)c(C)c5)c4c3OC[C@H]2C1 [Compound 6]
Response line: 0.54

Prompt line: Provide only the value of recorded IC50 for C=CC(=O)N1CCN2c3cc4c(Nc5ccc(Oc6ccn7ncnc7c6)c(C)c5)ncnc4cc3OC[C@H]2C1 [Compound 4]
Response line: 1.33

* * *

# measured.target: phosphorylated ERBB2 (pERBB2) (Homo sapiens, UniProt P04626)
# Construct: endogenous in cells
# Sequence (P04626 23-1255): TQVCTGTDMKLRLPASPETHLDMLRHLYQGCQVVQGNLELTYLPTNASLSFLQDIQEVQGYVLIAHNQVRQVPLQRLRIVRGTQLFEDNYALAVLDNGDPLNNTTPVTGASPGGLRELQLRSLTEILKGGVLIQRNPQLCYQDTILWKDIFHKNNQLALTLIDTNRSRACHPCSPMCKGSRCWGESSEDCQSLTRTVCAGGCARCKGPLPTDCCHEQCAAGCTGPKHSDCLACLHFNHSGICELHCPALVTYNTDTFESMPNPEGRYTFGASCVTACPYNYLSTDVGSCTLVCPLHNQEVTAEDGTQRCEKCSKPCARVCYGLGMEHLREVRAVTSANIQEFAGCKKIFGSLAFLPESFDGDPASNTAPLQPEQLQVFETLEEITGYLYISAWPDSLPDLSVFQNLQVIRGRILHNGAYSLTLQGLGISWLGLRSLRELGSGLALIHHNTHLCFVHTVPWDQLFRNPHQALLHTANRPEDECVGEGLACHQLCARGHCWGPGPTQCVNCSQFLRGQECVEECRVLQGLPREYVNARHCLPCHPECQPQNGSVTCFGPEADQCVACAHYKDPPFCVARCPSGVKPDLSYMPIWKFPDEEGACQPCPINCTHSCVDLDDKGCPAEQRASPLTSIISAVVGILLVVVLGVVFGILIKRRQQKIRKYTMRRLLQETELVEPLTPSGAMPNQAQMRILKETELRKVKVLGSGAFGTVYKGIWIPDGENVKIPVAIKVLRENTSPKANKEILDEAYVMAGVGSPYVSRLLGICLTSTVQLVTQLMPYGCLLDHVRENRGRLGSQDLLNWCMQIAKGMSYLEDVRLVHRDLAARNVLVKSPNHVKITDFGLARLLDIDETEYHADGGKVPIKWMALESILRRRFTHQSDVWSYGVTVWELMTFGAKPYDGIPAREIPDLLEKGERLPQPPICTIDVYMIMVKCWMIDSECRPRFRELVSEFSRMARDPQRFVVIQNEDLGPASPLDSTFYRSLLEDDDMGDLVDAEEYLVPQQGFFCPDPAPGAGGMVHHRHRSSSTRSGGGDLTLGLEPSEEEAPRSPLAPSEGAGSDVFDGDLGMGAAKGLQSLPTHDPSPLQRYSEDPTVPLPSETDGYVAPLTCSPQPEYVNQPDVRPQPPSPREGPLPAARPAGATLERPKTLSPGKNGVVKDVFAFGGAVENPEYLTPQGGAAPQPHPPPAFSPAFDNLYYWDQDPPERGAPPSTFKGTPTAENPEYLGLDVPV
# assay.summary: Detection of phosphorylated ERBB2 (pERBB2) by ELISA in BT-474 cells
# applied.conditions: four hour incubation
Hi there, I'd appreciate the recorded pIC50 for every entry that follows.
# reply with the number alone; pIC50 is -log10 of concentration in mol/L

Prompt line: Provide only the value of recorded pIC50 for Cc1cc(Nc2ncnc3ccc4c(c23)OC[C@@H]2CN(C)CCN42)ccc1Oc1ccn2ncnc2c1
Response line: 6.66

Prompt line: Provide only the value of recorded pIC50 for Cc1cc(Nc2ncnc3cnc4c(c23)OC[C@H]2CNCCN42)ccc1Oc1ccc2c(c1)ncn2C
Response line: 7.19

Prompt line: Provide only the value of recorded pIC50 for Cc1cc(Nc2ncnc3cc4c(cc23)N2CCNC[C@@H]2CO4)ccc1Oc1ccc2c(c1)ncn2C
Response line: 6.82

Prompt line: Provide only the value of recorded pIC50 for C=CC(=O)N1CCN2c3ccc4ncnc(Nc5ccc(Oc6ccn7ncnc7c6)c(C)c5)c4c3OC[C@H]2C1
Response line: 8.14

Prompt line: Provide only the value of recorded pIC50 for Cc1cc(Nc2ncnc3ccc4c(c23)OC[C@H]2CN4CCN2C)ccc1Oc1ccc2c(c1)ncn2C
Response line: 6.90

Prompt line: Provide only the value of recorded pIC50 for Cc1cc(Nc2ncnc3ccc4c(c23)OC[C@H]2CN4CCO2)ccc1Oc1ccn2ncnc2c1
Response line: 6.64

Prompt line: Provide only the value of recorded pIC50 for Cc1cc(Nc2ncnc3ccc4c(c23)OC[C@@H]2CNCCN42)ccc1Oc1ccc2c(c1)ncn2C
Response line: 7.04

* * *

# measured.target: phosphorylated EGFR (pEGFR) (Homo sapiens, UniProt P00533)
# Construct: performed to measure phosphorylated EGFR levels using A431 cells (10% FBS); endogenous in cells
# Sequence (P00533 25-1210): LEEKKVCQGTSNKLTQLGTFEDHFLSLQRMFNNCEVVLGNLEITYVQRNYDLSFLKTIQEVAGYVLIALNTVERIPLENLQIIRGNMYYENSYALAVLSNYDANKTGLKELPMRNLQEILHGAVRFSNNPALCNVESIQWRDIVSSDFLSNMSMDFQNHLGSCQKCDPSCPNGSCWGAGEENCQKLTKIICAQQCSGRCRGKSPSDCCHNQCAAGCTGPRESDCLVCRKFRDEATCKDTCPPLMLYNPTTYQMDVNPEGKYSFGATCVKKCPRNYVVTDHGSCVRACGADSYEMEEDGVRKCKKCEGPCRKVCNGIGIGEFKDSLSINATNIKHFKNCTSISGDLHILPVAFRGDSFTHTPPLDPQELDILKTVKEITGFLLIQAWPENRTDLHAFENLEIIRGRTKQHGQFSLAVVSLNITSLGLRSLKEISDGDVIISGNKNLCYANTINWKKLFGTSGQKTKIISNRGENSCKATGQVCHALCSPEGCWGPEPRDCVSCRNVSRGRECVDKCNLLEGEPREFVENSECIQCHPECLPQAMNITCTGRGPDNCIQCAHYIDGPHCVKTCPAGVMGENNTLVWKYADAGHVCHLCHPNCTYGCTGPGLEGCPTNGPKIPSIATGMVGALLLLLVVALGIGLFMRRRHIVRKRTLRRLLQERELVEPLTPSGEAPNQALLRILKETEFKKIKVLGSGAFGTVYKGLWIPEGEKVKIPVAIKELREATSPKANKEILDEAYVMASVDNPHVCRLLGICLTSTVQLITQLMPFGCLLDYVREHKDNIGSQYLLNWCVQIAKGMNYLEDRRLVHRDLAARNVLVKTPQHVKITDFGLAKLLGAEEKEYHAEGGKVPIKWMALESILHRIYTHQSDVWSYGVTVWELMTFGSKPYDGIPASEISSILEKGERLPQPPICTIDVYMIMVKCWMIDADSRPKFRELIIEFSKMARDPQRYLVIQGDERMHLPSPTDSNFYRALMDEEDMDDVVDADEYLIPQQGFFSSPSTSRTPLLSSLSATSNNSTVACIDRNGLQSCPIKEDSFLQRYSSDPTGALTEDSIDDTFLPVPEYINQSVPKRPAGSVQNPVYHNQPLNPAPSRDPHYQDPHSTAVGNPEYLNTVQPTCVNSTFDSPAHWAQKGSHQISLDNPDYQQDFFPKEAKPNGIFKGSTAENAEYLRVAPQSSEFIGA
# assay.summary: Detection of phosphorylated EGFR (pEGFR) by AlphaLISA in EGF-stimulated A431 cells
# applied.conditions: A431 cells (10% FBS), 4 hours incubation, EGF 30 ng/mL for 10 minutes
Hi there, I'd appreciate the recorded IC50 for every entry that follows.

Prompt line: Determine reported IC50 for Cc1cc(Nc2ncnc3cc4c(nc23)N2CCN(C(=O)/C=C/CN(C)C)C[C@@H]2CO4)ccc1Oc1ccn2ncnc2c1 [Compound 15] ; test system: phosphorylated EGFR (pEGFR) (Homo sapiens, UniProt P00533).
Response line: 0.284 µM

Prompt line: Determine reported IC50 for C=CC(=O)N1CCN2C[C@@H]1COc1c2ccc2ncnc(Nc3ccc(Oc4ccn5ncnc5c4)c(C)c3)c12 [Compound 25] ; test system: phosphorylated EGFR (pEGFR) (Homo sapiens, UniProt P00533).
Response line: 1.58 µM

Prompt line: Determine reported IC50 for C=CC(=O)N1CCN2c3nc4c(Nc5ccc(Oc6ccn7ncnc7c6)c(C)c5)ncnc4cc3OC[C@@H]2C1 [Compound 1] ; test system: phosphorylated EGFR (pEGFR) (Homo sapiens, UniProt P00533).
Response line: 0.0847 µM

Prompt line: Determine reported IC50 for Cc1cc(Nc2ncnc3cc4c(cc23)N2CCN(C)C[C@H]2CO4)ccc1Oc1ccn2ncnc2c1 [Compound 58] ; test system: phosphorylated EGFR (pEGFR) (Homo sapiens, UniProt P00533).
Response line: > 10 µM

Prompt line: Determine reported IC50 for Cc1cc(Nc2ncnc3cc4c(nc23)N2CC[C@H]2CO4)ccc1Oc1ccn2ncnc2c1 [Compound 70] ; test system: phosphorylated EGFR (pEGFR) (Homo sapiens, UniProt P00533).
Response line: > 10 µM

Prompt line: Determine reported IC50 for CN(C)C/C=C/C(=O)N1CCN2c3ccc4ncnc(Nc5ccc(Oc6ccn7ncnc7c6)c(F)c5)c4c3OC[C@@H]2C1 [Compound 94] ; test system: phosphorylated EGFR (pEGFR) (Homo sapiens, UniProt P00533).
Response line: 2.16 µM

Prompt line: Determine reported IC50 for CN(C)C/C=C/C(=O)N1CCN2c3ccc4ncnc(Nc5cc(F)c(Oc6ccn7ncnc7c6)cc5F)c4c3OC[C@@H]2C1 [Compound 98] ; test system: phosphorylated EGFR (pEGFR) (Homo sapiens, UniProt P00533).
Response line: > 10 µM

* * *

# measured.target: Ba/F3 ERBB2 YVMA (Homo sapiens, UniProt P04626, DUP772-775, cells depend on it)
# Sequence (P04626 with tags, fused parts or gaps DUP772-775): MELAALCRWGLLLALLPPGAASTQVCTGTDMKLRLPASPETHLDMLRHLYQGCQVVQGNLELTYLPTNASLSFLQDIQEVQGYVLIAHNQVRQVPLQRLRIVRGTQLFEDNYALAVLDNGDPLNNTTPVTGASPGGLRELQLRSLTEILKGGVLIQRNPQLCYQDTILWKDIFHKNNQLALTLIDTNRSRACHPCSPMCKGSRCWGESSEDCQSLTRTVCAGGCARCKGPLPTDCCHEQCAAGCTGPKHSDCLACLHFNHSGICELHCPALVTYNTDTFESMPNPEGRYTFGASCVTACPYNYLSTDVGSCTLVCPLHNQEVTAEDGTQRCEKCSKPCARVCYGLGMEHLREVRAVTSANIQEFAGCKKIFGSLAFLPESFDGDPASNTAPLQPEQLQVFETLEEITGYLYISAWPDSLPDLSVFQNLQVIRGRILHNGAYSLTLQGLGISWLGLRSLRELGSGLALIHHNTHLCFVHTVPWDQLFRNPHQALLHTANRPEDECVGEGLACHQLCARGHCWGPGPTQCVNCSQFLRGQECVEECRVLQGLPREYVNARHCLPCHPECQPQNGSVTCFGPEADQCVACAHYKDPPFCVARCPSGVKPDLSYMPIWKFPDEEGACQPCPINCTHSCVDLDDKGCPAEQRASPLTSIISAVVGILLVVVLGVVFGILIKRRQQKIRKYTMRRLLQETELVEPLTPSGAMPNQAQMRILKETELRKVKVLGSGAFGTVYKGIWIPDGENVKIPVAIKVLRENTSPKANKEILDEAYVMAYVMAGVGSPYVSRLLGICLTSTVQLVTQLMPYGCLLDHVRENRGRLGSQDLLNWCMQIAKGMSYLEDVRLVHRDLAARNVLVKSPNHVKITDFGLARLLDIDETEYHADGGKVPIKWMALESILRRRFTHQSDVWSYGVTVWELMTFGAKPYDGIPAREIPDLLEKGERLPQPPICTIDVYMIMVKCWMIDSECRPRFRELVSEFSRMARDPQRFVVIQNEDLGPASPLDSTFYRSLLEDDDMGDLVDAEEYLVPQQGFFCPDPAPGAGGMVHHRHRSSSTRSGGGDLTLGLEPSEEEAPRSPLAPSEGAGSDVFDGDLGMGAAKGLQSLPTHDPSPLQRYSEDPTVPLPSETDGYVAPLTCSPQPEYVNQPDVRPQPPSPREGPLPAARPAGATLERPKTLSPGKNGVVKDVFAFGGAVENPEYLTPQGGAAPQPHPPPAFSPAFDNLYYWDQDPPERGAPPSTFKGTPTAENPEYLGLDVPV
# assay.summary: Cell viability assay (CellTiter Glo), Ba/F3 cells engineered to express ERBB2 YVMA
# Type: cell-based, mouse
# applied.conditions: Ba/F3 cells expressing human ERBB2 YVMA mutant, 72 hours, read-out: Ba/F3 ERBB2 YVMA, IC50
Mark satisfied only when GI50 stays strictly below 10 nM. Values equal to the cut-off are not satisfied.

Prompt line: Field: below-cutoff. Rule: recorded GI50 strictly less than 10 nM. Subject: Cc1cc(Nc2ncnc3ccc4c(c23)OC[C@H]2CN(C(=O)/C=C/CN(C)C)CCN42)ccc1Oc1ccn2ncnc2c1
Response line: not satisfied

Prompt line: Field: below-cutoff. Rule: recorded GI50 strictly less than 10 nM. Subject: Cc1cc(Nc2ncnc3cc4c(nc23)N2CCN(C(=O)/C=C/CN(C)C)C[C@H]2CO4)ccc1Oc1ccn2ncnc2c1
Response line: satisfied

Prompt line: Field: below-cutoff. Rule: recorded GI50 strictly less than 10 nM. Subject: CN(C)C/C=C/C(=O)N1CCN2c3ccc4ncnc(Nc5ccc(Oc6ccn7ncnc7c6)cc5F)c4c3OC[C@@H]2C1
Response line: not satisfied

Prompt line: Field: below-cutoff. Rule: recorded GI50 strictly less than 10 nM. Subject: Cc1cc(Nc2ncnc3ccc4c(c23)OC[C@H]2COCCN42)ccc1Oc1ccn2ncnc2c1
Response line: not satisfied

Prompt line: Field: below-cutoff. Rule: recorded GI50 strictly less than 10 nM. Subject: CN(C)C/C=C/C(=O)N1CCN2C[C@@H]1COc1c2ccc2ncnc(Nc3ccc(Oc4ccn5ncnc5c4)c(F)c3)c12
Response line: satisfied

Prompt line: Field: below-cutoff. Rule: recorded GI50 strictly less than 10 nM. Subject: C=CC(=O)N1CCN2c3cc4c(Nc5ccc(Oc6ccn7ncnc7c6)c(C)c5)ncnc4cc3OC[C@@H]2C1
Response line: not satisfied

Prompt line: Field: below-cutoff. Rule: recorded GI50 strictly less than 10 nM. Subject: C=CC(=O)N1CCN2C[C@@H]1COc1c2ccc2ncnc(Nc3ccc(Oc4ccc5c(c4)ncn5C)c(C)c3)c12
Response line: not satisfied

Prompt line: Field: below-cutoff. Rule: recorded GI50 strictly less than 10 nM. Subject: C=CC(=O)N1CCN2c3ccc4ncnc(Nc5ccc(Oc6ccc7c(c6)ncn7C)c(C)c5)c4c3OC[C@H]2C1
Response line: not satisfied

Prompt line: Field: below-cutoff. Rule: recorded GI50 strictly less than 10 nM. Subject: Cc1cc(Nc2ncnc3cc4c(cc23)N2CCN(C(=O)/C=C/CN(C)C)C[C@@H]2CO4)ccc1Oc1ccc2c(c1)ncn2C
Response line: not satisfied

Prompt line: Field: below-cutoff. Rule: recorded GI50 strictly less than 10 nM. Subject: Cc1cc(Nc2ncnc3ccc4c(c23)OC[C@@H]2CN4CCN2)ccc1Oc1ccn2ncnc2c1
Response line: not satisfied

Prompt line: Field: below-cutoff. Rule: recorded GI50 strictly less than 10 nM. Subject: Cc1cc(Nc2ncnc3ccc4c(c23)OC[C@@H]2CN4CCN2C(=O)/C=C/CN(C)C)ccc1Oc1ccc2c(c1)ncn2C
Response line: not satisfied

Prompt line: Field: below-cutoff. Rule: recorded GI50 strictly less than 10 nM. Subject: Cc1c(Oc2ccn3ncnc3c2)ccc(Nc2ncnc3ccc4c(c23)OC[C@@H]2CN(C(=O)/C=C/CN(C)C)CCN42)c1F
Response line: satisfied

Prompt line: Field: below-cutoff. Rule: recorded GI50 strictly less than 10 nM. Subject: CN(C)C/C=C/C(=O)N1CCN2C[C@@H]1COc1c2ccc2ncnc(Nc3cc(F)c(Oc4ccn5ncnc5c4)cc3F)c12
Response line: satisfied

Prompt line: Field: below-cutoff. Rule: recorded GI50 strictly less than 10 nM. Subject: Cc1cc(Nc2ncnc3cnc4c(c23)OC[C@H]2COCCN42)ccc1Oc1ccc2c(c1)ncn2C
Response line: not satisfied

Prompt line: Field: below-cutoff. Rule: recorded GI50 strictly less than 10 nM. Subject: CN(C)C/C=C/C(=O)N1CCN2c3ccc4ncnc(Nc5ccc(Oc6ccn7ncnc7c6)c(F)c5)c4c3OC[C@H]2C1
Response line: not satisfied
